Catalogue of molecules with associated MDCK-MDR1 P^eapp(A-B) @ 5 μM
Tested on: MDCK-MDR1 cell line
Test name: MDCK-MDR1 permeability assay
Assay type: in vitro ADME
Condition info: apical-to-basolateral, with P-gp inhibitor elacridar (2 μM), 60 min

Cn1cc(NC(=O)Cc2nc3cnc4[nH]ccc4c3n2[C@H]2CC[C@H](CC#N)CC2)cn1 [Ex. 9]; 0.6 10^−6 cm/sec
N#CCC12CCC(NC(=O)Cc3nc4cnc5[nH]ccc5c4n3[C@H]3CC[C@H](CC#N)CC3)(CC1)C2 [Ex. 10]; 1.1 10^−6 cm/sec
CC(C)(C#N)CNC(=O)Cc1nc2cnc3[nH]ccc3c2n1[C@H]1CC[C@H](CC#N)CC1 [Ex. 7]; 1.2 10^−6 cm/sec
N#CC[C@H]1CC[C@H](n2c(CC(=O)NCC3(O)CCC3)nc3cnc4[nH]ccc4c32)CC1 [Ex. 8]; 0.5 10^−6 cm/sec

INPUT: Form field: reported MDCK-MDR1 P^eapp(A-B) @ 5 μM of N#CCC1CCC(n2c(-c3c[nH]cn3)nc3cnc4[nH]ccc4c32)CC1 (centres unmarked) [Ex. 2]
OUTPUT: 1.6 10^−6 cm/sec

INPUT: Form field: reported MDCK-MDR1 P^eapp(A-B) @ 5 μM of N#CC[C@H]1CC[C@H](n2c(CC(=O)Nc3cc[nH]n3)nc3cnc4[nH]ccc4c32)CC1 [Ex. 11]
OUTPUT: 0.8 10^−6 cm/sec

INPUT: Form field: reported MDCK-MDR1 P^eapp(A-B) @ 5 μM of N#CCCNC(=O)Cc1nc2cnc3[nH]ccc3c2n1[C@H]1CC[C@H](CC#N)CC1 [Ex. 4]
OUTPUT: 0.5 10^−6 cm/sec

INPUT: Form field: reported MDCK-MDR1 P^eapp(A-B) @ 5 μM of N#CC[C@H]1CC[C@H](n2c(CC(=O)NCC3(O)CC3)nc3cnc4[nH]ccc4c32)CC1 [Ex. 12]
OUTPUT: 0.6 10^−6 cm/sec

* * *

Test name: In vivo p.o. dosing (Protocols 1 and 2): plasma and colon concentrations
Design: species or system C57BL/6 mice
Condition info: mice, 25 mg/kg p.o. in 20% HPβCD, 4 h post dose
Outcome measure: Plasma Concentration After p.o. Dosing, Time = 4 h, Mean (ng/mL)

(A) C[C@@H](O)c1nc2cnc3[nH]ccc3c2n1[C@H]1CC[C@H](CC#N)CC1
(B) N#CC[C@H]1CC[C@H](n2c(CO)nc3cnc4[nH]ccc4c32)CC1
(C) Cc1nc2cnc3[nH]ccc3c2n1[C@H]1CC[C@H](CC#N)CC1
INPUT: Please put the 3 molecules above in a list ordered by falling Plasma Concentration After p.o. Dosing, Time = 4 h, Mean. List each label, following the requested order.
OUTPUT: C, A, B
(C: 84.5 ng/mL, A: 16.7 ng/mL, B: 11.3 ng/mL)

* * *

Test name: In vivo p.o. dosing (Protocols 1 and 2): plasma and colon concentrations
Parameters: species or system C57BL/6 mice
Condition info: mice, 25 mg/kg p.o. in 20% HPβCD, 2 h post dose
Outcome measure: Plasma Concentration After p.o. Dosing, Time = 2 h, Mean (ng/mL)

Cc1nc2cnc3[nH]ccc3c2n1[C@H]1CC[C@H](CC#N)CC1; 69.1

(I) N#CC[C@H]1CC[C@H](n2c(CO)nc3cnc4[nH]ccc4c32)CC1
(II) C[C@@H](O)c1nc2cnc3[nH]ccc3c2n1[C@H]1CC[C@H](CC#N)CC1
INPUT: Lab notebook, comparison: I versus II , higher Plasma Concentration After p.o. Dosing, Time = 2 h, Mean goes to which? Answer format: the label of the selected item.
OUTPUT: II
(II: 130.2 ng/mL, I: 66.3 ng/mL)
